Entry source: patent US20260085067A1

# Assayed Target: RNR (RNR1:RNR2 1:1) (Homo sapiens, UniProt P23921)
# Sequence (P23921 whole entry): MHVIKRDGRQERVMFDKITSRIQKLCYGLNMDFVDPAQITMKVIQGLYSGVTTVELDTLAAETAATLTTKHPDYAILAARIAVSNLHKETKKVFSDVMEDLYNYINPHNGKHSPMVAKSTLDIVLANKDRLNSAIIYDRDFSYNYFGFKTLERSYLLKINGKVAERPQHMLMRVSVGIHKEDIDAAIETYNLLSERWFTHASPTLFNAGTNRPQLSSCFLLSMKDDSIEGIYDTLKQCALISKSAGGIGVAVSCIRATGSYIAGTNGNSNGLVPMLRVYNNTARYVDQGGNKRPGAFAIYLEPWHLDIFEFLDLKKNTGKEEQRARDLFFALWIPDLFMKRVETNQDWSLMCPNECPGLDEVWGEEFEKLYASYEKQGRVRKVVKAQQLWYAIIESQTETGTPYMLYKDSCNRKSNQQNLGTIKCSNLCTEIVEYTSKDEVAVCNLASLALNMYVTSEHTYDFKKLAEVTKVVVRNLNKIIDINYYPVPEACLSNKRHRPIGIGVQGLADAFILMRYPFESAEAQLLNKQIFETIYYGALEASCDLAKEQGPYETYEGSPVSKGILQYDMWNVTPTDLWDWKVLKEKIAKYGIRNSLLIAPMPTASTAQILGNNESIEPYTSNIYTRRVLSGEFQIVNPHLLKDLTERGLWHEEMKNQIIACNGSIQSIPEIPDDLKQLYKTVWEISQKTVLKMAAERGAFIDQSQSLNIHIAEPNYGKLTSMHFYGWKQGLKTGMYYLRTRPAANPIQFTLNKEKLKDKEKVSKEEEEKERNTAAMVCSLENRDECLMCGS
pIC50: −log10 of the molar value.
Reported Endpoint: pIC50

                                   compound  reported_endpoint   measurement
0  Cc1ccc(F)c(C(C)[C@@H](c2n[nH]c(=O)o2)N2CCOc3c(ccc(Cl)c3C(C)(C)O)S2(=O)=O)c1C (some centres unmarked)              pIC50        > 7.70
1  Cc1ccc(F)c([C@@H](C)[C@@H](c2n[nH]c(=O)o2)N2CCOc3cc(Cl)ncc3S2(=O)=O)c1C [Example 27]              pIC50  5.00 to 6.00
2  Cc1ccc(F)c([C@@H](C)[C@@H](c2n[nH]c(=O)o2)N2CCOc3cc(Cl)cc(C)c3S2(=O)=O)c1C              pIC50  6.00 to 7.00
3  Cc1cc2c(cc1Cl)N(C)CN([C@H](c1n[nH]c(=O)o1)[C@H](C)c1c(F)ccc(C)c1C)S2(=O)=O              pIC50  7.00 to 7.70
4  Cc1ccc(F)c([C@@H](C)[C@@H](c2n[nH]c(=O)o2)N2CN([C@H]3CCN(CCF)C3)c3cc(Cl)ccc3S2(=O)=O)c1C              pIC50        > 7.70

###

# Tested on: pCHK1 (S345) in Colo320 DM cells
# Assay Text: Alphalisa assay, detection of pCHK1 (S345) in Colo320 DM cells
# Assay type: cell-based, human
# Measurement Parameters: Homo sapiens, COLO 320DM, compound overnight (approximately 16 hours)
pIC50: −log10 of the molar value.
Reported Endpoint: pIC50

>>> df
                                   compound  reported_endpoint   measurement
0  CC(=O)c1cc(Cl)cc2c1S(=O)(=O)N([C@H](c1n[nH]c(=O)o1)[C@H](C)c1c(F)ccc(C)c1C)CC(=O)N2 [Example 119]              pIC50  5.00 to 5.30
1  Cc1ccc(F)c([C@@H](C)[C@@H](c2n[nH]c(=O)o2)N2CN(CCO)c3nc(Cl)ccc3S2(=O)=O)c1C [Example 73]              pIC50        ≥ 6.00
2  Cc1ccc(F)c([C@@H](C)[C@@H](c2n[nH]c(=O)o2)N2CN(CC(F)F)c3cc(Cl)ccc3S2(=O)=O)c1C [Example 88]              pIC50        ≥ 6.00
3  Cc1ccc(F)c([C@@H](C)[C@@H](c2n[nH]c(=O)o2)N2CCOc3cc(Cl)cc(CO)c3S2(=O)=O)c1C [Example 78]              pIC50        ≥ 6.00
4  COCc1cc(Cl)cc2c1S(=O)(=O)N([C@H](c1n[nH]c(=O)o1)[C@H](C)c1c(F)ccc(C)c1C)CN2C [Example 70]              pIC50  5.30 to 6.00
5  Cc1ccc(F)c([C@@H](C)[C@@H](c2n[nH]c(=O)o2)N2CN([C@H]3CCN(CCF)C3)c3cc(Cl)ccc3S2(=O)=O)c1C [Example 106]              pIC50        ≥ 6.00
6  Cc1ccc(F)c([C@@H](C)[C@@H](c2n[nH]c(=O)o2)N2CN(C[C@H]3CCCO3)c3cc(Cl)ccc3S2(=O)=O)c1C [Example 52]              pIC50        ≥ 6.00
7  Cc1ccc(F)c([C@@H](C)[C@@H](c2n[nH]c(=O)o2)N2CN(C(=O)C3CC3)c3cc(Cl)ccc3S2(=O)=O)c1C [Example 46]              pIC50        ≥ 6.00
